Values from patent US6153605A

# ASSAY_NAME: Oral tolerance (calcemic liability) by body weight in hairless mice
# Design: species or system hairless mice (Moro hr/hr)
# RECORDED_CONDITIONS: mouse, in vivo, oral gavage in arachis oil, daily for 4 days, read-out: HTDp.o. (highest tolerated oral dose without weight loss)
# Procedure: Orally administered vitamin D analogues can lead to epidermal thickening (acanthosis) in hairless mice. […] Hairless mice (Moro hr/hr) received daily administrations of the test compound in arachis oil by gavage for 4 days, using 2-5 different dosages (3 fold increments; 2 animals per dosage group). […] The epidermal thickness was measured at standard magnification using an occular grid. […]
Collected MTD values appear next to each entry.
MEASURE_NAME: MTD (mg/kg)

COMPOUND: C=C1/C(=C\C=C2/CCC[C@]3(C)[C@@H]([C@@H](C)C#Cc4cccc(C(C)(C)O)c4)CC[C@@H]23)C[C@@H](O)C[C@@H]1O
UNIT_ANNOTATION: mg/kg
QUANTITATIVE_RESULT: 1

COMPOUND: C=C1/C(=C\C=C2/CCC[C@]3(C)[C@@H]([C@@H](C)C#Cc4ccccc4C(C)(C)O)CC[C@@H]23)C[C@@H](O)C[C@@H]1O
UNIT_ANNOTATION: mg/kg
QUANTITATIVE_RESULT: 2

COMPOUND: CC(C#Cc1ccccc1C(C)(C)O)[C@H]1CC[C@H]2/C(=C/C=C3C[C@@H](O)C[C@H](O)C3)CCC[C@]12C (stereo partly drawn)
UNIT_ANNOTATION: mg/kg
QUANTITATIVE_RESULT: 0.04
